# System: S. aureus DSM 20231;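 also: first quartile when negative (synergy) and third quartile when positive (antagonism)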
# measurementNotes: Bliss interaction score (quartile over a dose matrix) (fitness difference); higher = more antagonism (negative = synergy)

>  <compound>
CC(=O)OC[C@H]1O[C@@H]([S-])[C@H](OC(C)=O)[C@@H](OC(C)=O)[C@@H]1OC(C)=O.CCP(CC)CC.[Au+] [Auranofin] + C[C@@H]1O[C@@H]1P(=O)(O)O [Fosfomycin]

>  <Bliss interaction score>
0.0509

$$$$
>  <compound>
N[C@@H]1CONC1=O [CycloserineD] + CN(N=O)C(=O)N[C@@H](C=O)[C@@H](O)[C@H](O)[C@H](O)CO [Streptozotocin]

>  <Bliss interaction score>
-0.14

$$$$
>  <compound>
O=C1CN(/N=C/c2ccc([N+](=O)[O-])o2)C(=O)N1 [Nitrofurantoin] + CN(C)c1cc(NC(=O)CNC(C)(C)C)c(O)c2c1C[C@H]1C[C@H]3[C@H](N(C)C)C(O)=C(C(N)=O)C(=O)[C@@]3(O)C(O)=C1C2=O [Tigecycline]

>  <Bliss interaction score>
0.0547

$$$$
>  <compound>
CC[C@H]1OC(=O)[C@H](C)[C@@H](O[C@H]2C[C@@](C)(OC)[C@@H](O)[C@H](C)O2)[C@H](C)[C@@H](O[C@@H]2O[C@H](C)C[C@H](N(C)C)[C@H]2O)[C@](C)(OC)C[C@@H](C)C(=O)[C@H](C)[C@@H](O)[C@]1(C)O [Clarithromycin] + CN(C)C(=O)C(CCN1CCC(O)(c2ccc(Cl)cc2)CC1)(c1ccccc1)c1ccccc1 [Loperamide]

>  <Bliss interaction score>
0.18

$$$$
